# systemUnderTest: ScBem1-D1
# assayDetails: SPOT peptide array binding signal intensity (averaged, normalized) (arbitrary units (background-subtracted, floor 0; scale differs between SH3 domains)); higher = stronger binding of the SH3 domain to the peptide
metric: SPOT peptide array binding signal intensity

-- ask Fill in: SPOT peptide array binding signal intensity of RRSKSLPTTPGIRSG is ___
-- reply 54

-- ask # query: SPOT peptide array binding signal intensity of entry RMVRRRPLRVQFSAR
-- reply 142

-- ask Using the record for DLFKPLPEPPTELGR , report its SPOT peptide array binding signal intensity.
-- reply ≤ 0

-- ask I would be grateful if you could share the reported SPOT peptide array binding signal intensity for QQEQNTPPLPPKPKS .
-- reply ≤ 0

-- ask Would you mind telling me what SPOT peptide array binding signal intensity value was observed for APKHAPPPVPNETDN ?
-- reply ≤ 0

-- ask Please give the measured SPOT peptide array binding signal intensity for this binder: KTRLRPAFIQQLWSS
-- reply 60

-- ask Report SPOT peptide array binding signal intensity for RLSFFFPLDPAYIRN please.
-- reply 17
